biological target: JAK2 (Homo sapiens, UniProt O60674); test: JAK2 kinase activity test at molecular level (Z'-LYTE FRET); assay type: biochemical; conditions: Table 2; read-out: JAK2 IC50
Sequence (O60674 whole entry): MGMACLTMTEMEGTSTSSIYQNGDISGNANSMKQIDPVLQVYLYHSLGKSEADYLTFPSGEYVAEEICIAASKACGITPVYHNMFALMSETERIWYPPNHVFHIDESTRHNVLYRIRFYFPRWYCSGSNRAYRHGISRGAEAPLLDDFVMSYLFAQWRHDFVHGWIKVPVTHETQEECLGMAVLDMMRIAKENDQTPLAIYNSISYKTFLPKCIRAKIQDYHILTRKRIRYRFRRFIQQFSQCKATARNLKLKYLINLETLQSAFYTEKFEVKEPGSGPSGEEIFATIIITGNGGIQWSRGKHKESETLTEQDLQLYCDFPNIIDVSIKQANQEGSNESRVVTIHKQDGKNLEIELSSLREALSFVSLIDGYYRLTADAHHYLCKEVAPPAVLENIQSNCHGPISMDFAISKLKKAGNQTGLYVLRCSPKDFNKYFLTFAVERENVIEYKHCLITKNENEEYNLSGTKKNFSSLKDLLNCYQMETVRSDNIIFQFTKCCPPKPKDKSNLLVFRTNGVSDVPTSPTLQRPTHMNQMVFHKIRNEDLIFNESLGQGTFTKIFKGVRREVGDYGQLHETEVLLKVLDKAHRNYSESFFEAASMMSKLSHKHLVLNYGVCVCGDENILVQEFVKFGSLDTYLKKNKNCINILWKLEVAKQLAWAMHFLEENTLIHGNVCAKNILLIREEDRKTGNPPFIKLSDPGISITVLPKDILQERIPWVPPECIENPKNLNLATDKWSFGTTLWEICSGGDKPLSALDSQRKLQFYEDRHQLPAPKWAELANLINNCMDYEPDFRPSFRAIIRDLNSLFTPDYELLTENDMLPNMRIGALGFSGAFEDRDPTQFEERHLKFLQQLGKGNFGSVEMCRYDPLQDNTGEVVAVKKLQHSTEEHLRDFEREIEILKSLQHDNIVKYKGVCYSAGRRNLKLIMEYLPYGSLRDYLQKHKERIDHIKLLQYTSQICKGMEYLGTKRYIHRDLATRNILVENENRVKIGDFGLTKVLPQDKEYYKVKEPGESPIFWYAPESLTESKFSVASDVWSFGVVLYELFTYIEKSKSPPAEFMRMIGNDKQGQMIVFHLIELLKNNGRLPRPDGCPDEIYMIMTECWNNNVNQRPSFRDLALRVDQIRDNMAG
pIC50: −log10 of the molar value.
Parameter pIC50: see the listing below.

CC(Oc1cc(Nc2cc3ccccc3cn2)cnc1N)c1cc(F)ccc1Cl (stereo not shown)
< 5.30
CC(Oc1cc(Nc2ccc3ccccc3n2)cnc1N)c1cc(F)ccc1Cl (stereo not shown)
< 5.00
CC(Oc1cc(-c2cnoc2)cnc1N)c1cc(F)ccc1Cl (stereo not shown)
< 5.00

Form entry - test system: JAK2 (Homo sapiens, UniProt O60674); read-out: pIC50; compound: CC(Oc1cc(Nc2nccc3ccccc23)cnc1N)c1cc(F)ccc1Cl (stereo not shown)
< 5.00

====

Parameter IC50: see the listing below.
biological target: ALK (Homo sapiens, UniProt Q9UM73); assay: ALK kinase IC50 test (HTRF); type: biochemical; details: Table 2
Sequence (Q9UM73 19-1620, species assumed): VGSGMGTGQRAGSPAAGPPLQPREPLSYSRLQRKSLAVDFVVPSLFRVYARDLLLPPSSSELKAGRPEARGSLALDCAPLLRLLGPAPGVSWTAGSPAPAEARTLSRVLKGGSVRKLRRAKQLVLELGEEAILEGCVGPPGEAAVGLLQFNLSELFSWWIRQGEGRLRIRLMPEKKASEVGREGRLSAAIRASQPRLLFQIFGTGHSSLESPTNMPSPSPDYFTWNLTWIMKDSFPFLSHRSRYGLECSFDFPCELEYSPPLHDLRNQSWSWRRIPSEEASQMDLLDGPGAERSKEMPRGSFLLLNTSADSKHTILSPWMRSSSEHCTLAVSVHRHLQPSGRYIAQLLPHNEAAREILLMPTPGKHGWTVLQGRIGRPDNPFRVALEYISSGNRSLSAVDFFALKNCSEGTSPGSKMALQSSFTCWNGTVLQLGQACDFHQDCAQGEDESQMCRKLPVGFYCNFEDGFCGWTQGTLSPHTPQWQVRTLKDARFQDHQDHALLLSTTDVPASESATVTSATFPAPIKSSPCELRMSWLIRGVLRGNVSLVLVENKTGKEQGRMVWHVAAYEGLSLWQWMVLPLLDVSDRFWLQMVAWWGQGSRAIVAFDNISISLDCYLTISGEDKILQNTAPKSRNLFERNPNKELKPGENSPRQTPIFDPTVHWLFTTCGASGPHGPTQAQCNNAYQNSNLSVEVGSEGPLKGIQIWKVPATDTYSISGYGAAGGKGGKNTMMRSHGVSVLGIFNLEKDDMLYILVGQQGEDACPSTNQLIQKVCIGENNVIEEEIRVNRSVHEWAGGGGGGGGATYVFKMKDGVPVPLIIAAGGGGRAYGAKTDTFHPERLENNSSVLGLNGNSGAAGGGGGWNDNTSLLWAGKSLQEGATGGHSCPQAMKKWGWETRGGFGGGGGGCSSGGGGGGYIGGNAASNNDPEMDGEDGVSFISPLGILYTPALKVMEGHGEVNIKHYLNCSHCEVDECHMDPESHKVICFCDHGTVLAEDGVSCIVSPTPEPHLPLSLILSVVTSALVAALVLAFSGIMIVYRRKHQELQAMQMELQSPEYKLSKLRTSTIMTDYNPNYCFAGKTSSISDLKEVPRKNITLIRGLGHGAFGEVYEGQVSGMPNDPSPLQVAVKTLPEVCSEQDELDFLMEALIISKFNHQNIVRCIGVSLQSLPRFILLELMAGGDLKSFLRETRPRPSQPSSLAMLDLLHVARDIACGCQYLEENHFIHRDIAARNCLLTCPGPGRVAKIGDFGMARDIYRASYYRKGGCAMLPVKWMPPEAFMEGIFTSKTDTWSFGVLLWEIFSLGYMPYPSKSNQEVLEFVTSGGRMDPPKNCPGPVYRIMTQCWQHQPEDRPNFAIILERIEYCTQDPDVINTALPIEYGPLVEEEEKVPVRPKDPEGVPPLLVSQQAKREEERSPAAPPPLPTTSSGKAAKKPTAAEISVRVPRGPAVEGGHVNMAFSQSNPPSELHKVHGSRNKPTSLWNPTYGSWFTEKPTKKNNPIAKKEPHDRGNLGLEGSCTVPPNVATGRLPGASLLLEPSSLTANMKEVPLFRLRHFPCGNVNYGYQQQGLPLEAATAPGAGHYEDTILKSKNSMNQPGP

Guide cases for IC50, answers given:
CC(Oc1cc(-c2cnn(C3CCOCC3)c2)cnc1N)c1cc(F)ccc1Cl (centres unmarked)
> 10 µM
CC(Oc1cc(-c2ccccc2)cnc1N)c1cc(F)ccc1Cl (centres unmarked)
> 10 µM
CC(Oc1cc(-c2ccccc2)cnc1N)c1c(Cl)ccc(F)c1Cl (centres unmarked)
> 10 µM

IC50 for CC(Oc1cc(Nc2ccccc2)cnc1N)c1cc(F)ccc1Cl (centres unmarked) ?
> 10 µM

IC50 for CC(Oc1cc(-c2cc3ccccc3[nH]2)cnc1N)c1cc(F)ccc1Cl (centres unmarked) ?
> 10 µM

IC50 for `C[C@@H](Oc1cc(-c2cccnc2)cnc1N)c1c(Cl)ccc(F)c1Cl` ?
> 10 µM

IC50 for CC(Oc1cc(-c2cnoc2)cnc1N)c1cc(F)ccc1Cl (centres unmarked) ?
> 10 µM

IC50 for CC(Oc1cc(-c2cn(C)cn2)cnc1N)c1cc(F)ccc1Cl (centres unmarked) ?
> 10 µM

IC50 for CC(Oc1cc(Nc2nccc3ccccc23)cnc1N)c1cc(F)ccc1Cl (centres unmarked) ?
> 10 µM

IC50 for CC(Oc1cc(Nc2cc3ccccc3cn2)cnc1N)c1cc(F)ccc1Cl (centres unmarked) ?
> 10 µM

IC50 for CC(Oc1cc(-c2nccs2)cnc1N)c1cc(F)ccc1Cl (centres unmarked) ?
> 10 µM

IC50 for CC(Oc1cc(Nc2ccccn2)cnc1N)c1cc(F)ccc1Cl (centres unmarked) ?
> 10 µM

IC50 for CC(Oc1cc(-c2cnn(C3CCNCC3)c2)cnc1N)C1CCCCC1 (centres unmarked) ?
> 10 µM

IC50 for Cc1cc(Nc2cnc(N)c(OC(C)c3cc(F)ccc3Cl)c2)nn1C (centres unmarked) ?
> 10 µM

====

molecular target: JAK2 (Homo sapiens, UniProt O60674); assay: JAK2 kinase activity test at molecular level (Z'-LYTE FRET); type: biochemical; conditions: Table 1; read-out: JAK2 kinase activity IC50
pIC50: −log10 of the molar value.
quantity-kind: pIC50

C[C@@H](Oc1cc(-c2ccc(N3CCNCC3)nc2)cnc1N)c1c(Cl)ccc(F)c1Cl
6.09
CC(Oc1cc(-c2ccc(C3CCNCC3)cc2)cnc1N)c1cc(F)ccc1Cl (centres unmarked)
7.32
C[C@@H](Oc1cc(-c2cncc(N3CCNCC3)c2)cnc1N)c1c(Cl)ccc(F)c1Cl
6.92
CC(Oc1cc(-c2cn[nH]c2)cnc1N)c1cc(F)ccc1Cl (centres unmarked)
7.80
CC(Oc1cc(-c2ccccc2)cnc1N)c1cc(F)ccc1Cl (centres unmarked)
6.34

[P] CC(Oc1cc(-c2cnn(C3CCNCC3)c2)cnc1N)C1CCCCC1 (centres unmarked)
[Q] CC(Oc1cc(-c2cnn(C3CCNCC3)c2)cnc1N)c1c(Cl)cccc1Cl (centres unmarked)
Thinking about recorded pIC50 values, which is higher, P or Q ? Returns: label corresponding to the selected item.
Q

====

Parameter IC50: see the listing below.
system: SET 2 (JAK2 V617F) cells; assay: CCK-8 cell proliferation detection, SET2 cells; format: cell-based; settings: Homo sapiens, SET-2; Table 2; CCK-8, 72 hrs
Value expressed in µM; do not type the unit.

Guide cases for IC50, answers given:
CC(Oc1cc(-c2cnn(C)c2)cnc1N)c1cc(F)ccc1Cl (centres unmarked) [XFL-111]
7.56
Cc1n[nH]c(C)c1-c1cnc(N)c(OC(C)c2cc(F)ccc2Cl)c1 (centres unmarked) [XFL-107]
3.35
CC(Oc1cc(-c2cnn3ccccc23)cnc1N)c1cc(F)ccc1Cl (centres unmarked) [MXY-97]
4.51
CC(Oc1cc(-c2cnn(C3CCNCC3)c2)cnc1N)C1CCCCC1 (centres unmarked) [WWQ-197]
7.02

The record that follows has no IC50 shown yet.
IC50 for CC(Oc1cc(-c2cc3ccccc3[nH]2)cnc1N)c1cc(F)ccc1Cl (centres unmarked) [MXY-141] ?
13.2

Origin of values: patent US20210179598A1
